Target: T1, SARS-CoV-2 S1 (aa16-685) (Wuhan) (SARS-CoV-2 Wuhan, UniProt P0DTC2 16-685)
T1 construct: NRC; FLAG, 6xHis tags
Assay: SPR, antigen on chip
quantityMeasured: Kd (pM)
The reply should contain only the number, in pM.

Query block: What does the record list as Kd for NRCoV2-02 VHH (VHH) VHH: EVQLVESGGGLVQAGGSLRLSCAASGFTFSNYAMNWVRQAPGKGLEWVSGISGRGDDTRYADSVKGRFTISRDNAKNTLFLQMRSLRPEDTGVYRCTKGPDLYYFGSGYSDRGQGTQVTVSS ?
Result block: 659

Query block: What does the record list as Kd for NRCoV2-SR01 VHH (VHH) VHH: EVQLVQSGGGSVQAGGSLRLSCVASGFTFDNYAIGWFRQAPGKEREGVSCISGNGGVTIYADSVKGRFTISRDNAKNLVYLQMNSLKPEDTAVYYCAATGIRSTWSVYGCSRLAGPYDYWGQGTQVTVSS ?
Result block: 437

Query block: What does the record list as Kd for NRCoV2-10 VHH (VHH) VHH: QLQLQESGGGLVQPGGSLTLSCAASGNTFSRSNMHWYRQAPGAQREWVAAISSRGISTYAYSAKGRFTISRDNAKNTVSLQMNSLKPEDTAVYYCYAADDLGDYWGQGTQVTVSS ?
Result block: 213

Query block: What does the record list as Kd for NRCoV2-SR04 VHH (VHH) VHH: QVQLVESGGGLVQAGGSLRLSCAASGRTFSSHTVGWYRQAPGKQRDLVAAISMGGNTNYADYADSVKGRFTISRDNAKNTLYLQMNSLKPEDTAVYYCNTAALVGNRLLPMATITWGQGTQVTVSS ?
Result block: 226
